Listing: pIC50 of selected compounds
biological target: BRD4-BD1 (Homo sapiens (Human)); assay: AlphaLisa bromodomain binding assay, BRD4-BD1; conditions: Table 6; read-out: BRD4(1) IC50
pIC50 (log units): -log10 of the concentration in mol/L.

In the examples that follow, each entry is paired with its recorded pIC50.
CN1CCN(c2ccc(Nc3ncc4ccn(-c5ccc6c(c5)CCN6S(=O)(=O)C(C)(C)C)c4n3)cc2)CC1 [drawing 398]; 5.00
CN1CCC(Nc2nc3c(c(Nc4cccc(NS(=O)(=O)C(C)(C)C)c4)n2)COC3)CC1; 5.63
CN1CCC(NC(=O)c2ccc(Nc3ncc4ccn(-c5cccc(NS(=O)(=O)C6CC6)c5)c4n3)cc2F)CC1; 6.07

Lab note: next compound to report on.
Query: Please look up its pIC50: CC(C)(C)S(=O)(=O)Nc1cccc(Nc2nc(NC3CCNCC3)nc3ccsc23)c1
Reply: 6.22

---

Listing: pIC50 of selected molecules
target: BRDT-BD1 (Homo sapiens (Human), UniProt Q58F21); test: AlphaLisa bromodomain binding assay, BRDT-BD1; settings: Table 6; read-out: BRDT(1) IC50
pIC50 (log units): -log10 of the concentration in mol/L.

In the examples that follow, each entry is paired with its recorded pIC50.
CN(C)C1CCN(c2ccc(Nc3ncc4ccn(-c5ccc(F)c(NS(=O)(=O)C(C)(C)C)c5)c4n3)cc2F)CC1 [drawing 366]; 6.85
CN1CCN(c2ccc(Nc3ncc4ccn(-c5ccc(F)c(NS(=O)(=O)C(C)(C)C)c5)c4n3)cc2)CC1 [drawing 295]; 6.74

Query: Could you share what pIC50 was measured for Cc1cnc(Nc2ccc(N3CCN(C)CC3)c(F)c2)nc1Nc1ccc2c(c1)N(S(=O)(=O)C(C)(C)C)CC2 [drawing 246] , tested on BRDT-BD1 (Homo sapiens (Human), UniProt Q58F21)?
Reply: 6.64

Query: Could you share what pIC50 was measured for COc1cc(Nc2ncc3ccn(-c4cccc(NS(=O)(=O)C(C)(C)C)c4)c3n2)ccc1N1CCN(C)CC1 , tested on BRDT-BD1 (Homo sapiens (Human), UniProt Q58F21)?
Reply: 6.44

---

molecular target: BRD4-BD1 (Homo sapiens (Human), UniProt O60885); assay: AlphaLisa bromodomain binding assay, BRD4-BD1; conditions: Table 6; read-out: BRD4(1) IC50
Listing: pIC50 of selected compounds
pIC50 (log units): -log10 of the concentration in mol/L.

In the examples that follow, each entry is paired with its recorded pIC50.
CC1(C)CNCCC1Nc1cc(Nc2cccc(NS(=O)(=O)C(C)(C)C)c2)c2ccsc2c1 (stereo not shown); 5.55
CNC1CCN(C(=O)c2ccc(Nc3ncc4ccn(-c5cccc(NS(=O)(=O)C(C)(C)C)c5)c4n3)cc2F)CC1; 6.63
CCC1(S(=O)(=O)Nc2cccc(-n3ccc4cnc(Nc5ccc(N6CCC(N(C)C)CC6)cc5)nc43)c2)CC1; 5.85

Query: Please look up its pIC50: CN1CCC(NC(=O)c2ccc(Nc3ncc4ccn(-c5ccc(F)c(NS(=O)(=O)C6CC6)c5)c4n3)cc2)CC1
Reply: 5.95

---

target: JAK2 (Homo sapiens (Human), UniProt O60674); assay: HTRF kinase assay, JAK2; type: biochemical; conditions: Table 6
Sequence (O60674 whole entry): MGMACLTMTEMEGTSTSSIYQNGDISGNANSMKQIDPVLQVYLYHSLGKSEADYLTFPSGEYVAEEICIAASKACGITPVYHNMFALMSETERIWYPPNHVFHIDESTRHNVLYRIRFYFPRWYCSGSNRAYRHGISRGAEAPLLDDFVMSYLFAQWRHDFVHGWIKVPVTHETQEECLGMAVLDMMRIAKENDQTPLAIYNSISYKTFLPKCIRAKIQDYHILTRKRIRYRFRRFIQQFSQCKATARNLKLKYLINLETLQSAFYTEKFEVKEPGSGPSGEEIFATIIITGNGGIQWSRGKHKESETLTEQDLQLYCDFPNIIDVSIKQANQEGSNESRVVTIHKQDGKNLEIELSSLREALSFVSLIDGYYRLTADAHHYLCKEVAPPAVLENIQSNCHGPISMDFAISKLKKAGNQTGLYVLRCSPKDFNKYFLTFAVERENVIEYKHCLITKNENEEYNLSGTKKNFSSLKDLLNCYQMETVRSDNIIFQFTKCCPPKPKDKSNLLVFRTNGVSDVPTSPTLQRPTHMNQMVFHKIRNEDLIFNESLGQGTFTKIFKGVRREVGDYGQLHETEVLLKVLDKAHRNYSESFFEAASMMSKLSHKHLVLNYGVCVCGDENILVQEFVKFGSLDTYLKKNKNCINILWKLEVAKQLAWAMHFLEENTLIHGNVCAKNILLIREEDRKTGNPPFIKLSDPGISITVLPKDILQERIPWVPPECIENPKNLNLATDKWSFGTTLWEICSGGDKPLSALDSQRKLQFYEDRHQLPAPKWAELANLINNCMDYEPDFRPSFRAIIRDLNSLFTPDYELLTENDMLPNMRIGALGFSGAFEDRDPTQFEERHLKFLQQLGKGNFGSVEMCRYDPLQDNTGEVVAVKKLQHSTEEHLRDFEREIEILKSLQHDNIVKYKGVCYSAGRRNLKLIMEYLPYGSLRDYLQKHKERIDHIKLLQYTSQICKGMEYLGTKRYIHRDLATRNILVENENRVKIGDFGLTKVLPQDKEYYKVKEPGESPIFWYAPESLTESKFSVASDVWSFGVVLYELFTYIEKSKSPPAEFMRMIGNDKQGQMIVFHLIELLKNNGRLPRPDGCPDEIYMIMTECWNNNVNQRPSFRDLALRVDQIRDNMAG
pIC50: −log10 of the molar value.
Assign fulfilled whenever pIC50 does not fall below 7; assign not fulfilled whenever it does.

These recorded examples may help you get a feel for the data.
CN1C(=O)CCc2cc(Nc3ncc4ccn(-c5cccc(NS(=O)(=O)C(C)(C)C)c5)c4n3)ccc21; fulfilled
CN1CCN(c2ccc(Nc3ncc4ccn(-c5ccc6c(c5)N(S(=O)(=O)C(C)(C)C)CC6)c4n3)cc2)CC1; fulfilled
CN1CCC(NC(=O)c2ccc(Nc3ncc4ccn(-c5cccc(NS(=O)(=O)C6CC6)c5)c4n3)cc2)CC1; fulfilled
CC(=O)N1CCC(c2ccc(Nc3ncc4ccn(-c5cccc(NS(=O)(=O)C(C)(C)C)c5)c4n3)cc2)CC1; not fulfilled

Query: Decide: is the reported value of pIC50 for COc1cc(Nc2ncc3ccn(-c4cccc(NS(=O)(=O)C(C)(C)C)c4)c3n2)ccc1N1CCC(N(C)C)CC1 equal to or greater than 7?
Reply: fulfilled

Query: Decide: is the reported value of pIC50 for CN(C)C1CCN(Cc2ccc(Nc3ncc4ccn(-c5cccc(NS(=O)(=O)C(C)(C)C)c5)c4n3)cc2F)CC1 equal to or greater than 7?
Reply: fulfilled

Query: Decide: is the reported value of pIC50 for CN(C)C1CCN(Cc2ccc(Nc3ncc4ccn(-c5ccc(F)c(NS(=O)(=O)C(C)(C)C)c5)c4n3)cc2F)CC1 equal to or greater than 7?
Reply: not fulfilled

---

biological target: BRDT-BD1 (Homo sapiens (Human), UniProt Q58F21); assay: AlphaLisa bromodomain binding assay, BRDT-BD1; conditions: Table 6; read-out: BRDT(1) IC50
Result Type: pIC50
pIC50 (log units): -log10 of the concentration in mol/L.

In the examples that follow, each entry is paired with its recorded pIC50.
CN1CCN(c2ccc(Nc3ncc4ccn(-c5cccc(NS(=O)(=O)C(C)(C)C)c5)c4n3)cc2F)CC1; 5.95
CNC1CCN(c2ccc(Nc3ncc4ccn(-c5ccc(F)c(NS(=O)(=O)C(C)(C)C)c5)c4n3)cc2F)CC1 [drawing 457]; 6.52
CC(C)(C)S(=O)(=O)Nc1cccc(-n2ccc3cnc(Nc4ccc(C5CCNCC5)cc4)nc32)c1; 6.49

Lab note: next molecule to report on.
Query: Please look up its pIC50: CN(C)C1CCN(c2ccc(Nc3ncc4ccn(-c5cccc(NS(=O)(=O)C(C)(C)C)c5)c4n3)cc2)CC1 [drawing 317]
Reply: 6.39

---

Target: BRD4-BD1 (Homo sapiens (Human))
Assay: AlphaLisa bromodomain binding assay, BRD4-BD1
Details: Table 6; read-out: BRD4(1) IC50
Procedure: An AlphaLisa assay was used to observe bromodomain binding and measure IC50s for the compounds disclosed herein. An AlphaLisa assay is a bead-based assay used to detect interactions between bromodomains and polyacetylated histone peptides. […] Equipment Required • 1. […] Microplate reader (Pherastar) […] The percent inhibition is calculated in the excel analysis template and the IC50 values are subsequently determined using a sigmoidal dose-response curve (variable slope) using GraphPad Prism® 5 software.
Listing: pIC50 of selected compounds
pIC50 (log units): -log10 of the concentration in mol/L.

In the examples that follow, each entry is paired with its recorded pIC50.
CN(C)C1CCN(c2ccc(Nc3ncc4ccn(-c5ccc(F)c(NS(=O)(=O)C(C)(C)C)c5)c4n3)cc2)CC1; 6.59
CN1CCN(c2ccc(Nc3ncc4ccn(-c5cccc(NS(=O)(=O)C6CC6)c5)c4n3)cc2)CC1 [drawing 356]; 5.74
CN1CCN(c2ccc(Nc3ncc4ccn(-c5ccccc5NS(=O)(=O)C(C)(C)C)c4n3)cc2)CC1; 5.00
CN1CCC(NC(=O)c2ccc(Nc3ncc4ccn(-c5ccc(F)c(NS(=O)(=O)C(C)(C)C)c5)c4n3)cc2F)CC1 [drawing 363]; 6.87
CC(=O)N1CCN(c2ccc(Nc3ncc4ccn(-c5cccc(NS(=O)(=O)C6CC6)c5)c4n3)cc2)CC1; 5.24

Query: Please look up its pIC50: CNCCOc1ccc(Nc2ncc3ccn(-c4cccc(NS(=O)(=O)C(C)(C)C)c4)c3n2)cc1F [drawing 467]
Reply: 5.89

Query: Please look up its pIC50: CC(C)(C)S(=O)(=O)Nc1cccc(-n2ccc3cnc(Nc4ccc5c(c4)CC4CNCCN54)nc32)c1 (stereo not shown) [drawing 411]
Reply: 6.51

---

biological target: JAK1 (Homo sapiens (Human), UniProt P23458)
Sequence (P23458 whole entry): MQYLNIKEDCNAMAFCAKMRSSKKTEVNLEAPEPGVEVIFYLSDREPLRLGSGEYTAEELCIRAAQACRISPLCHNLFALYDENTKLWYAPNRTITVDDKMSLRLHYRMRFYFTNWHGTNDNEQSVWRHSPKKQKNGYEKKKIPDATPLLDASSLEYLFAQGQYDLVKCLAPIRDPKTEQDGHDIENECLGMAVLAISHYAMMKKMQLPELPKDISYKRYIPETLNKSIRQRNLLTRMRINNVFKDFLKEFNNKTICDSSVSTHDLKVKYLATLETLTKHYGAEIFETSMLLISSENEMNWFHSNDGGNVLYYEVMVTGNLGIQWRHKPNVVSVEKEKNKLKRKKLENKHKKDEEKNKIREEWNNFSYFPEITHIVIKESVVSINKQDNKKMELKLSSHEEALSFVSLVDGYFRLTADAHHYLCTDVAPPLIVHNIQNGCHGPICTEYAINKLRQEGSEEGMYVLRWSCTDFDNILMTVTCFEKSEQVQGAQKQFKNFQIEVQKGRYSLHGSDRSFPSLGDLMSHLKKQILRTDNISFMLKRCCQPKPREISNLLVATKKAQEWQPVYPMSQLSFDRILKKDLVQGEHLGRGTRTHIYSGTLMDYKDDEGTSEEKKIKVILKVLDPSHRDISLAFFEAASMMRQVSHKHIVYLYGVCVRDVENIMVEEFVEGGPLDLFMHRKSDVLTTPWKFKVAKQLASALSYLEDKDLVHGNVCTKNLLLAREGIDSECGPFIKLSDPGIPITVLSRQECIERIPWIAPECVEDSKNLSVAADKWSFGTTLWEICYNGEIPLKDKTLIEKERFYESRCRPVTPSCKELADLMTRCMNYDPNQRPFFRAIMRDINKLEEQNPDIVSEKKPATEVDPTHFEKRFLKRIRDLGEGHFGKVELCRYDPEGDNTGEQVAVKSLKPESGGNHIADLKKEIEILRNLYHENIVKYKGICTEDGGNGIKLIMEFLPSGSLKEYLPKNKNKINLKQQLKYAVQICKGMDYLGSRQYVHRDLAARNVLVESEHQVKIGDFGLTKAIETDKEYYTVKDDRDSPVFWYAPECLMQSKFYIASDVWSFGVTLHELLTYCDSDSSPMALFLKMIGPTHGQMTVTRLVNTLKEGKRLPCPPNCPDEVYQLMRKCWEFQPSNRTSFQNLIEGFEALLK
Binary call on IC50 with cut-off 1000 nM: strictly below means MET, and equality or higher means NOT MET.

These recorded examples may help you get a feel for the data.
CC(C)(C)S(=O)(=O)Nc1cc(-n2ccc3cnc(Nc4cc(F)c5c(c4)CC4CNCCN54)nc32)ccc1F (stereo not shown) [drawing 465]; NOT MET
CNC1CCN(c2ccc(Nc3ncc4scc(-c5ccc(F)c(NS(=O)(=O)C(C)(C)C)c5)c4n3)cc2F)CC1 [drawing 458]; NOT MET
CNC1CCN(c2ccc(Nc3ncc4ccn(-c5ccc(F)c(NS(=O)(=O)C(C)(C)C)c5)c4n3)cc2F)CC1 [drawing 457]; NOT MET
CN1CCN(c2ccc(Nc3ncc4ccn(-c5cccc(NS(=O)(=O)C(C)(C)C)c5)c4n3)cc2F)CC1; MET

Query: Answer whether the molecule COc1cc(Nc2ncc3ccn(-c4cccc(NS(=O)(=O)C(C)(C)C)c4)c3n2)ccc1N1CCN(C)CC1 has IC50 strictly less than 1000 nM
Reply: MET

Query: Answer whether the molecule CC(C)(C)S(=O)(=O)Nc1cccc(-n2ccc3cnc(Nc4ccc(C(=O)N5CCNCC5)c(F)c4)nc32)c1 [drawing 463] has IC50 strictly less than 1000 nM
Reply: MET

---

molecular target: UniProt O60674; experiment: HTRF kinase assay, JAK2; assay type: biochemical; settings: Table 6
Listing: IC50 of selected molecules
I only need the number, in nM, no unit after it.

In the examples that follow, each entry is paired with its recorded IC50.
CN1CCN(c2ccc(Nc3nc(-n4ccc(C(=O)NC5CC5)c4)c4ccsc4n3)cc2F)CC1; 10000
CN1CCN(c2ccc(Nc3ncc4ccn(-c5cccc(NS(=O)(=O)C6CC6)c5)c4n3)cc2)CC1 [drawing 278]; 2.5
COc1nc(Nc2ccc(N3CCN(C)CC3)cc2)nc2c1ccn2-c1cccc(NS(=O)(=O)C(C)(C)C)c1; 10000
CN1CCC(c2ccc(Nc3ncc4ccn(-c5cccc(NS(=O)(=O)C6CC6)c5)c4n3)cc2)CC1; 51

Query: Please look up its IC50: COc1cc(Nc2ncc3ccn(-c4cccc(NS(=O)(=O)C(C)(C)C)c4)c3n2)ccc1N1CCNCC1
Reply: 2.8

Query: Please look up its IC50: CN(C)C1CCN(c2ccc(Nc3ncc4ccn(-c5cccc(NS(=O)(=O)C(C)(C)C)c5)c4n3)cc2)C1 (centres unmarked)
Reply: 37

Query: Please look up its IC50: Cc1cnc(Nc2ccc(N3CCN(C)CC3)cc2)nc1Nc1cccc(NS(=O)(=O)C(C)(C)C)c1 [drawing 396]
Reply: 7

Query: Please look up its IC50: Cc1cnc(Nc2ccc(N3CCN(C)CC3)cc2)nc1-n1ccc(C(=O)NC2CC2)c1
Reply: 30

Query: Please look up its IC50: CC(=O)N1CCC(c2ccc(Nc3ncc4ccn(-c5cccc(NS(=O)(=O)C6CC6)c5)c4n3)cc2)CC1
Reply: 140

Query: Please look up its IC50: CN1CCN(c2ccc(Nc3ncc4ccn(-c5ccc6c(c5)CCN6S(=O)(=O)C(C)(C)C)c4n3)cc2)CC1 [drawing 398]
Reply: 0.6

Query: Please look up its IC50: CN(C)C1CCN(c2ccc(Nc3ncc4ccn(-c5cccc(NS(=O)(=O)C6CC6)c5)c4n3)cc2)CC1
Reply: 14

Query: Please look up its IC50: CN1CCC(NC(=O)c2ccc(Nc3ncc4ccn(-c5cccc(NS(=O)(=O)C6CC6)c5)c4n3)cc2F)CC1
Reply: 13

Query: Please look up its IC50: CN1CCN(c2ccc(Nc3ncc4ccn(-c5ccc6c(c5)N(S(=O)(=O)C(C)(C)C)CC6)c4n3)cc2F)CC1
Reply: 38

Query: Please look up its IC50: CC(C)(C)S(=O)(=O)Nc1cccc(-n2ccc3cnc(Nc4ccc5c(c4)CC4CNCCN54)nc32)c1 (centres unmarked) [drawing 411]
Reply: 13

Query: Please look up its IC50: Cc1cnc(Nc2ccc(N3CCN(C)CC3)cc2)nc1Nc1cccc(NS(=O)(=O)C(C)(C)C)c1 [drawing 276]
Reply: 8

Query: Please look up its IC50: CN(C)C1CCN(c2ccc(Nc3ncc4ccn(-c5ccc(F)c(NS(=O)(=O)C6(C)CC6)c5)c4n3)cc2F)CC1
Reply: 20

Query: Please look up its IC50: CN1CCN(c2ccc(Nc3ncc4ccn(-c5cccc(NC(=O)C(C)(C)C)c5)c4n3)cc2)CC1
Reply: 54

Query: Please look up its IC50: CN1CCN(c2ccc(Nc3ncc4cccc(-c5cccc(NS(=O)(=O)C(C)(C)C)c5)c4n3)cc2)CC1
Reply: 10
